biological target: UniProt:E1BK36; experiment: Radioligand Binding Assay; details: Bovine binding Ki, CHO-K1 membranes with recombinant bovine VAChT, [3H]Compound X6 0.3 nM
Each item that follows carries a reported pKi.
As a rule, pKi stands for the negative log10 of the concentration, concentration in M.

O=C(NCc1cnc(Cl)s1)N1CC2(CCN(C/C=C/c3ccc(Cl)cc3)CC2)c2cc(OC(F)(F)F)ccc21    6.10
O=C(NCc1cnc(Cl)s1)N1CC2(CCN(C/C=C/c3ccc(Cl)cc3)CC2)c2cc(C(F)(F)F)ccc21    6.65
CC(C)CNC(=O)N1CC2(CCN(C/C=C/c3ccc(Cl)c(Cl)c3)CC2)c2c1ccc1scnc21    6.07
O=C(NCc1ccnc(Cl)c1)N1CC2(CCN(C/C=C/c3ccc(C(F)(F)F)cc3)CC2)c2c1ccc(F)c2Cl    6.51
O=C(NCc1ccnc(F)c1)N1CC2(CCN(C/C=C/c3ccc(Cl)cc3)CC2)c2cc(-n3ccccc3=O)ccc21    4.94
O=C(NCc1ccnc(Cl)c1)N1CC2(CCN(C/C=C/c3ccc(Cl)cc3)CC2)c2cc(N3CCCC3)ccc21    5.85
O=C(NCc1ccnc(F)c1)N1CC2(CCN(C/C=C/c3ccc(Cl)cc3)CC2)c2c(F)cc(C(F)(F)F)cc21    6.59
O=C(NCc1ccnc(Cl)c1)N1CC2(CCN(C/C=C/c3ccc(Cl)cc3)CC2)c2c(OC(F)(F)F)ccc(Cl)c21    5.90
N#Cc1cccc(-c2ccc3c(c2)C2(CCN(C/C=C/c4ccc(Cl)c(Cl)c4)CC2)CN3C(=O)NCc2ccnc(F)c2)c1    4.49
O=C(NCc1ccnc(Cl)c1)N1CC2(CCN(C/C=C/c3ccc(C(F)(F)F)cc3)CC2)c2cc(Cl)c(F)cc21    7.36

Qu. Identify measured pKi associated with Cc1c(F)ccc2c1C1(CCN(C/C=C/c3ccc(Cl)cc3)CC1)CN2C(=O)NCc1ccnc(Cl)c1
Ans. 7.13

Qu. Assign pKi to the following record: O=C(NCC1CCOC1)N1CC2(CCN(C/C=C/c3ccc(Cl)c(Cl)c3)CC2)c2c1ccc1scnc21 (racemic)
Ans. 6.14

Qu. Provide measured pKi value, entry: Cn1ncc2c3c(ccc21)N(C(=O)NCc1ccnc(Cl)c1)CC31CCN(C/C=C/c2ccc(F)cc2)CC1
Ans. 6.11

* * *

In this section, each of the compounds is paired with its reported Ki.
target: bovine vesicular acetylcholine transporter (VAChT) (Bos taurus, UniProt E1BK36); assay: Radioligand Binding Assay; conditions: Bovine binding Ki, CHO-K1 membranes with recombinant bovine VAChT, [3H]Compound X6 0.3 nM
Sequence (E1BK36 1-524): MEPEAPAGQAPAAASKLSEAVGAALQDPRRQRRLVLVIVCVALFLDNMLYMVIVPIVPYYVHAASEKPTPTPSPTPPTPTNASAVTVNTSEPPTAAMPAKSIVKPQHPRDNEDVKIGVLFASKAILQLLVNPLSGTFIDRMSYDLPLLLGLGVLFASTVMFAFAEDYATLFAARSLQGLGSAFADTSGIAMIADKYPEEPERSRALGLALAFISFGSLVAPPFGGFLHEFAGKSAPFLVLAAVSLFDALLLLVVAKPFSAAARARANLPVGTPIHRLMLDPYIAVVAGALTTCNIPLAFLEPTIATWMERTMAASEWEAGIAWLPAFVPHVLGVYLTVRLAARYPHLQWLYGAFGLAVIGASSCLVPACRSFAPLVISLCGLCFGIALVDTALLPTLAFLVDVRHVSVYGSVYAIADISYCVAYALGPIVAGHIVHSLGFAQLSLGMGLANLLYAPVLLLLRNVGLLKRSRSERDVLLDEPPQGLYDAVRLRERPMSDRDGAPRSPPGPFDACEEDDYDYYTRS

O=C(NCc1ccnc(Cl)c1)N1CC2(CCN(C/C=C/c3ccc(OC(F)(F)F)cc3)CC2)c2cc(C(F)(F)F)ccc21    921 nM
CS(=O)(=O)c1ccc2c(c1)N(C(=O)NCc1ccnc(Cl)c1)CC21CCN(C/C=C/c2ccc(Cl)cc2)CC1    23.4 nM
O=C(NCc1ccnc(F)c1)N1CC2(CCN(C/C=C/c3ccc(F)cc3)CC2)c2cc(Br)ccc21    72.7 nM

Qu. Report measured Ki; entry is O=C(NCc1ccnc(F)c1)N1CC2(CCN(C/C=C/c3ccc(C(F)(F)F)cc3)CC2)c2cc(Cl)ccc21
Ans. 224 nM

* * *

biological target: bovine vesicular acetylcholine transporter (VAChT) (Bos taurus, UniProt E1BK36); experiment: Radioligand Binding Assay; details: Bovine binding Ki, CHO-K1 membranes with recombinant bovine VAChT, [3H]Compound X6 0.3 nM
Each record here notes measured pKi.
Reminder that pKi is minus the log10 of a molar concentration.

Study these solved cases before continuing.
O=C(NCc1ccnc(Cl)c1)N1CC2(CCN(C/C=C/c3ccc(Cl)c(Cl)c3)CC2)c2cc(Cl)cc(Cl)c21 [Example 171]    7.68
O=C(NCc1ccnc(F)c1)N1CC2(CCN(C/C=C/c3ccc(Cl)c(Cl)c3)CC2)c2c(Br)cccc21 [Example 103]    6.33
O=C(NCc1ccnc(F)c1)N1CC2(CCN(C/C=C/c3ccc(Cl)cc3)CC2)c2cc(Cl)c(Cl)cc21 [Example 70]    6.60

Read the next record carefully.
Qu. Item N#Cc1cc2c(cn1)N(C(=O)NCc1ccnc(Cl)c1)CC21CCN(C/C=C/c2ccc(Cl)cc2)CC1 [Example 86] : provide pKi
Ans. 7.50

Cited source: patent US20160296499A1
